biological target: KAT6A Full length enzyme (Homo sapiens (Human), UniProt Q92794); assay: KAT6A assay (SAMDI-MS acetylation of H3 1-21 peptide); assay type: biochemical; conditions: Morrison equation fit; replicate number in parentheses; read-out: KAT6A Ki (nM) (replicate number)
Sequence (Q92794 other isoform, or with tags, fused parts or gaps): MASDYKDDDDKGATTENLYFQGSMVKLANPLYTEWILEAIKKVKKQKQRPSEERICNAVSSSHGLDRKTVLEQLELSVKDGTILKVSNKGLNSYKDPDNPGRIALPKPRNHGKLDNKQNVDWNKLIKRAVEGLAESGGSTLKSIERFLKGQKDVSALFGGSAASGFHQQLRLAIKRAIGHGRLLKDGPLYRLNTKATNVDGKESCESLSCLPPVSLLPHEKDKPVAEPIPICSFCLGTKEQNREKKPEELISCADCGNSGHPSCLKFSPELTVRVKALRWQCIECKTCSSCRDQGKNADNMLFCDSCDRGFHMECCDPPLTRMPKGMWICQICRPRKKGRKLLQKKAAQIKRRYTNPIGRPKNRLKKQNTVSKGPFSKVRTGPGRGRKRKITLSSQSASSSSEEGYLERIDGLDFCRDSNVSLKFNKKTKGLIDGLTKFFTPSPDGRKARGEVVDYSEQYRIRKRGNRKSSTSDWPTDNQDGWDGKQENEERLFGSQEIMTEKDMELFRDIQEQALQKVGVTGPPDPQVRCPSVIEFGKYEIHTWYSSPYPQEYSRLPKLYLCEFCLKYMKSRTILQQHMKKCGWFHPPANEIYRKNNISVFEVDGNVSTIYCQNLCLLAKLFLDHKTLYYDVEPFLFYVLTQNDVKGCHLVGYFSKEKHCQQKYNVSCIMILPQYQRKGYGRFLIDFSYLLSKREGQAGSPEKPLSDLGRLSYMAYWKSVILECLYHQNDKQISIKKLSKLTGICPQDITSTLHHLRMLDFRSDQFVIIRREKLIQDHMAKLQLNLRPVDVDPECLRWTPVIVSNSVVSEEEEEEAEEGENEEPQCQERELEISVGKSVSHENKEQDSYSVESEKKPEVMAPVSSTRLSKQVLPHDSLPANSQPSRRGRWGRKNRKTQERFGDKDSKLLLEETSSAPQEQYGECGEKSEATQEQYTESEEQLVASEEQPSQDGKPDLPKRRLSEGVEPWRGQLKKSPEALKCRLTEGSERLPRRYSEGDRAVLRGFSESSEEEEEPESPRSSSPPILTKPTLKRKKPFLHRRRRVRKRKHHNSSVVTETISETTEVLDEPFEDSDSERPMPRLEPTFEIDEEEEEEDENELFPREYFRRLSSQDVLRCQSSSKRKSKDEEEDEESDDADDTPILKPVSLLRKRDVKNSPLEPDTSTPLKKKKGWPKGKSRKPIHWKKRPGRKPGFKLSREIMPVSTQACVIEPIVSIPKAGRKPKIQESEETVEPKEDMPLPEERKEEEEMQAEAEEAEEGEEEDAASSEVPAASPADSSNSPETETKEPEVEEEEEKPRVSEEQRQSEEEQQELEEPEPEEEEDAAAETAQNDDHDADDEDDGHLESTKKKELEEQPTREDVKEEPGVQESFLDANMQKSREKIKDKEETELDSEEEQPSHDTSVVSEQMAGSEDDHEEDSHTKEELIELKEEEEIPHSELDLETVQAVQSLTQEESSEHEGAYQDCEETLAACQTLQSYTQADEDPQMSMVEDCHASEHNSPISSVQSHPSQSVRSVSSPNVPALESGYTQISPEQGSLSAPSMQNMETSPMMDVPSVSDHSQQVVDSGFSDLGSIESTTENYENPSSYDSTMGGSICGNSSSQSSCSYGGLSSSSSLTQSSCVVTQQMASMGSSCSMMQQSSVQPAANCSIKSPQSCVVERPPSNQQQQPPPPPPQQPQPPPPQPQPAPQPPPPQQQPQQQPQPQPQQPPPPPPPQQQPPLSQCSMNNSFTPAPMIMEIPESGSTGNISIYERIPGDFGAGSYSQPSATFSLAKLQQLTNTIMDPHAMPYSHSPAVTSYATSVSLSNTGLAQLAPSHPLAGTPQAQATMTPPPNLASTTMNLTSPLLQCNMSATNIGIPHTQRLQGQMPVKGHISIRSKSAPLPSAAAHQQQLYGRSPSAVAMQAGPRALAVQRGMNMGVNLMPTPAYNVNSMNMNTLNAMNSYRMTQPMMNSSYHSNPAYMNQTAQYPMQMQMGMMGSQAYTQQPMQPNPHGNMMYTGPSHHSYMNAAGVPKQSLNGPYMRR
outcome.measure: log10 of Ki (log10 of the value in nM)
Remember, log10 of Ki, in nM.

Dear colleague, could you send me log10 of Ki for each of the items below? Thanks.
1. CCOc1cc(C)c(F)cc1S(=O)(=O)Nc1noc2cc(Nc3cc(C4CC4)n[nH]3)c(F)c(OC)c12
2. COc1cc(Nc2cc3onc(NS(=O)(=O)c4c(OC)cccc4OC)c3cc2OC)n[nH]1
3. CCc1cc(Nc2cc3onc(NS(=O)(=O)c4c(OC)cc(-c5nccn5C)cc4OC)c3cc2OC)[nH]n1
4. COc1cc2c(NS(=O)(=O)c3c(OC)cccc3OC)noc2cc1Nc1ccn(C(C)C)n1
5. CCN1CCCCC1c1cc(OC)c(S(=O)(=O)Nc2noc3cc(Nc4cc(C5CC5)n[nH]4)c(OC)cc23)c(OC)c1 (single isomer, unassigned) [Example 174]

# output
1. 0.28
2. 0.53
3. 0.15
4. 1.30
5. 0.64

Dear colleague, could you send me log10 of Ki for each of the items below? Thanks.
1. COc1cc2c(NS(=O)(=O)c3c(OC)cccc3OC)noc2cc1Nc1cc(C2CCNCC2)n[nH]1
2. COc1cccc(OC)c1S(=O)(=O)Nc1noc2cc(Nc3ncccn3)cc(OC)c12

# output
1: 0.48; 2: 0.72

Ref: patent US20250122183A1
